Give measured inhibition for each item. Keep answers brief.
# study-system: Serine/threonine-protein kinase D3 (Homo sapiens);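 further: values are mean inhibition figures against PRKD3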
# run-conditions: at 1 µM
Answers are plain numbers, in %.

Sample records with inhibition:
{"columns": ["compound", "attribute-measured", "measured"],
 "data": [
  ["Cc1ccc(C(=O)NC2CC2)cc1-c1ccc2[nH]ncc2c1", "inhibition", -2.14],
  ["CN(C)c1cc2c(Nc3ccc4c(cnn4Cc4ccccc4)c3)ncnc2cn1", "inhibition", 4.21],
  ["COc1ccc(-c2nn3ncccc3c2-c2ccnc(Nc3cccc(C(F)(F)F)c3)n2)cc1", "inhibition", 3.3]
]}

For each listed entry, give its inhibition.
1. COc1cc2ncnc(Nc3ccc4c(cnn4Cc4ccccc4)c3)c2cc1OC
2. Cc1ccc2c(c1)/C(=N/Nc1ccc(S(N)(=O)=O)cc1)C(=O)N2
3. Cc1ccc(O)cc1Nc1ccnc2ccc(S(C)(=O)=O)cc12
4. COc1cc2ncn(-c3cc(OCc4ccccc4S(C)(=O)=O)c(C#N)s3)c2cc1OC
5. CS(=O)(=O)Nc1cccc(-c2ccc3c(NC(=O)C4CC4)n[nH]c3c2)c1
6. CN(C)C(=O)O[C@@H]1CN[C@@H](C#Cc2cc3ncnc(Nc4ccc(OCc5cccc(F)c5)c(Cl)c4)c3s2)C1
7. NS(=O)(=O)c1ccc(N/N=C2\C(=O)Nc3ccc(Cl)cc32)cc1

[4.17, 1.79, 22.7, 5.43, 2.48, 4.35, 5.68]

Please state, for each entry, its recorded inhibition.
1. Cc1cc(Cl)cc2c1NC(=O)C2=NNc1ccc(S(N)(=O)=O)cc1
2. Nc1nccc(-c2c(-c3ccc(F)cc3)ncn2CCCN2CCOCC2)n1
3. CCS(=O)(=O)c1ccc(OC)c(Nc2ncc(-c3cccc(OC)c3)o2)c1
4. O=S(=O)(CCOCc1ccc(-c2ccc3ncnc(Nc4ccc(OCc5cccc(F)c5)c(Cl)c4)c3c2)o1)c1ccccc1
5. CCn1c(-c2nonc2N)nc2ccc(F)cc21
6. Nc1ccc(C#Cc2cncnc2Nc2ccc(OCc3cccc(F)c3)c(Cl)c2)cc1
7. COC(=O)Nc1nc2cc(Oc3ccc(NC(=O)Nc4cccc(Br)c4)cc3)ccc2[nH]1
8. Nc1nccc(-c2c(-c3ccc(F)cc3)nn3cc(C(F)(F)F)ccc23)n1

1. 1.81
2. 4.86
3. 3.64
4. 1.96
5. 6.49
6. 2.64
7. 3.88
8. 3.75

* * *

# study-system: RAC-gamma serine/threonine-protein kinase (Homo sapiens) (UniProt Q9Y243)
# Sequence (Q9Y243 whole entry): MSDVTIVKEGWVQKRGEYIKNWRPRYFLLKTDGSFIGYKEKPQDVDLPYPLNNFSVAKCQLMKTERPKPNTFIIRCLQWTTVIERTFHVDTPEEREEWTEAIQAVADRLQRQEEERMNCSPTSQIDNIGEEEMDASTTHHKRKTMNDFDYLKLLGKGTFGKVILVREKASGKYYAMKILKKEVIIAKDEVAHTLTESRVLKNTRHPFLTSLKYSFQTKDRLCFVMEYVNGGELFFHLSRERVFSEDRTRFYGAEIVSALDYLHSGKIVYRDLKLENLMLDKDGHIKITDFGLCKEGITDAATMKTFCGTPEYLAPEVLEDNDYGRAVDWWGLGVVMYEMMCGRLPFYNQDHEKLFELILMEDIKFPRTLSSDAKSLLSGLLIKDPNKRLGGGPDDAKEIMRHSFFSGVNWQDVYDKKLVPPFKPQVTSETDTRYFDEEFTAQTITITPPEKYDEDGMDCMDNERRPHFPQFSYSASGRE
# run-conditions: at 1 µM
# Description: GSK_PKIS: AKT3 mean inhibition at 1 uM [Nanosyn]
attribute-measured: inhibition (%)
Answers are plain numbers, in %.

In the examples that follow, each entry is paired with its recorded inhibition.
{"columns": ["structure-notation", "inhibition (%)"],
 "data": [
  ["CN(c1ccc(NC(=O)Nc2ccc(OC(F)(F)F)cc2)cc1)c1ccnc(Nc2cccc(S(N)(=O)=O)c2)n1", 2.79],
  ["COc1ccc2ncnc(Nc3ccc(OCc4ccccc4)cc3)c2c1", 1.52],
  ["COc1cc2ncnc(Nc3ccc4c(cnn4Cc4ccccc4)c3)c2cc1OC", 2.09],
  ["NS(=O)(=O)c1ccc(-c2cc3ccncc3cc2OCc2ccccc2)cc1", 2.2]
]}

Look up inhibition for the entries below, preserving their order.
1. Cc1nc(-c2ccccc2)n2nc(NCCCN3CCOCC3)ncc12
2. CN(C)CCCn1c(-c2nonc2N)nc2cnccc21

1. 4.13
2. 1.84

Report inhibition for every entry below.
1. O=C(Nc1ccc(Oc2ccc3[nH]c(NC(=O)c4ccco4)nc3c2)cc1)Nc1cc(C(F)(F)F)ccc1F
2. COc1cc2ncnc(Nc3ccc(C)c(O)c3)c2cc1OC
3. CC(C)c1ccc(Nc2nccc(-c3cnn4ncccc34)n2)cc1
4. FC(F)(F)c1ccc(-c2nn3ncccc3c2-c2ccnc(Nc3ccc4c(c3)OCCO4)n2)cc1

1: -4.94; 2: 1.76; 3: 1.51; 4: -0.79

Record inhibition per entry; entries follow.
1. NC(=O)c1sc(-n2cnc3ccccc32)cc1OCc1ccccc1Br
2. N#Cc1cccc(Nc2nccc(-c3cnn4ncccc34)n2)c1

4.09
5.1

* * *

# study-system: Fibroblast growth factor receptor 2 (Homo sapiens) (UniProt P21802);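 further: reported figure is a mean percent inhibition of FGFR2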
# Sequence (P21802 22-821 limits assumed): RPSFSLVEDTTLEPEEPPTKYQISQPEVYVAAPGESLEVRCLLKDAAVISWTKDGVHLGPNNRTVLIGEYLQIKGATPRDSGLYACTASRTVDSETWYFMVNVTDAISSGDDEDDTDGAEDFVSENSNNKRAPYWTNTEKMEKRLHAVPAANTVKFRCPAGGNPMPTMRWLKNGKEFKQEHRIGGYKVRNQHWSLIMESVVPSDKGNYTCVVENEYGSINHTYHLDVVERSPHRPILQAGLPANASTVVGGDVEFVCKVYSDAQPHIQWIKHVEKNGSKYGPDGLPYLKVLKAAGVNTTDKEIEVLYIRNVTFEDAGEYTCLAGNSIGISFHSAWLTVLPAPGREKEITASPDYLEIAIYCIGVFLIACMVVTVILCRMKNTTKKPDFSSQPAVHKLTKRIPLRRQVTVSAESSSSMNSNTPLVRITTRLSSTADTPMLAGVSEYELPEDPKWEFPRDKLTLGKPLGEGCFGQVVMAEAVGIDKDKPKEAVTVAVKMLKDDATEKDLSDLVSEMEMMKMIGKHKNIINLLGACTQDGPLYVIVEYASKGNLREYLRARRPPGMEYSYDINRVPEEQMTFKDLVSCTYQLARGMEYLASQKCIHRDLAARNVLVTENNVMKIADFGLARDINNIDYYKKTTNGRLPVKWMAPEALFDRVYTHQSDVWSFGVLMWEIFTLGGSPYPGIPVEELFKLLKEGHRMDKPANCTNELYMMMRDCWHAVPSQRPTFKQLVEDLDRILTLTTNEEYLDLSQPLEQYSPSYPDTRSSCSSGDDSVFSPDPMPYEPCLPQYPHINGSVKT
# run-conditions: at 1 µM
Provide the recorded inhibition for the entries that follow.
State the value with its unit after it.

Example compounds with recorded inhibition:
{"columns": ["structure-notation", "study-system", "measured"],
 "data": [
  ["N#Cc1c(NC(=O)c2ccccc2F)sc2c1CCCC2", "Fibroblast growth factor receptor 2 (Homo sapiens) (UniProt P21802)", "-2.53%"],
  ["COC(=O)c1cncc(/C=C/c2c(C)cc(O)cc2C)c1", "Fibroblast growth factor receptor 2 (Homo sapiens) (UniProt P21802)", "7.59%"],
  ["Nc1nccc(C#Cc2cncnc2Nc2ccc(OCc3cccc(F)c3)c(Cl)c2)n1", "Fibroblast growth factor receptor 2 (Homo sapiens) (UniProt P21802)", "8.42%"],
  ["Cc1ccc2c(-c3ccnc(Nc4cccc(C(F)(F)F)c4)n3)c(-c3ccccc3)nn2n1", "Fibroblast growth factor receptor 2 (Homo sapiens) (UniProt P21802)", "9.52%"]
]}

Would you mind listing inhibition for each of the following compounds?
1. CCS(=O)(=O)c1ccc(OC)c(Nc2ncc(-c3cccc(OC)c3)o2)c1
2. NS(=O)(=O)c1cccc(Nc2cc(-c3ccc(F)cc3)n[nH]2)c1
3. COc1cc(/C=N/Nc2ncnc3c2cnn3C(C)C)ccc1O
4. c1ccc(Cc2nc3ccc(Nc4ncnc5ccccc45)cc3[nH]2)cc1
5. Oc1cccc(-c2nc(-c3ccccc3)[nH]c2-c2ccncc2)c1
6. FC(F)(F)c1ccc(-c2nn3ncccc3c2-c2ccnc(Nc3ccc4c(c3)OCCO4)n2)cc1

["68.2%", "9.22%", "7.97%", "7.58%", "9.16%", "11.1%"]

* * *

# study-system: Mast/stem cell growth factor receptor Kit (Homo sapiens) (UniProt P10721);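 further: values are mean inhibition of KIT, from the GSK PKIS dataset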
# Sequence (P10721 whole entry): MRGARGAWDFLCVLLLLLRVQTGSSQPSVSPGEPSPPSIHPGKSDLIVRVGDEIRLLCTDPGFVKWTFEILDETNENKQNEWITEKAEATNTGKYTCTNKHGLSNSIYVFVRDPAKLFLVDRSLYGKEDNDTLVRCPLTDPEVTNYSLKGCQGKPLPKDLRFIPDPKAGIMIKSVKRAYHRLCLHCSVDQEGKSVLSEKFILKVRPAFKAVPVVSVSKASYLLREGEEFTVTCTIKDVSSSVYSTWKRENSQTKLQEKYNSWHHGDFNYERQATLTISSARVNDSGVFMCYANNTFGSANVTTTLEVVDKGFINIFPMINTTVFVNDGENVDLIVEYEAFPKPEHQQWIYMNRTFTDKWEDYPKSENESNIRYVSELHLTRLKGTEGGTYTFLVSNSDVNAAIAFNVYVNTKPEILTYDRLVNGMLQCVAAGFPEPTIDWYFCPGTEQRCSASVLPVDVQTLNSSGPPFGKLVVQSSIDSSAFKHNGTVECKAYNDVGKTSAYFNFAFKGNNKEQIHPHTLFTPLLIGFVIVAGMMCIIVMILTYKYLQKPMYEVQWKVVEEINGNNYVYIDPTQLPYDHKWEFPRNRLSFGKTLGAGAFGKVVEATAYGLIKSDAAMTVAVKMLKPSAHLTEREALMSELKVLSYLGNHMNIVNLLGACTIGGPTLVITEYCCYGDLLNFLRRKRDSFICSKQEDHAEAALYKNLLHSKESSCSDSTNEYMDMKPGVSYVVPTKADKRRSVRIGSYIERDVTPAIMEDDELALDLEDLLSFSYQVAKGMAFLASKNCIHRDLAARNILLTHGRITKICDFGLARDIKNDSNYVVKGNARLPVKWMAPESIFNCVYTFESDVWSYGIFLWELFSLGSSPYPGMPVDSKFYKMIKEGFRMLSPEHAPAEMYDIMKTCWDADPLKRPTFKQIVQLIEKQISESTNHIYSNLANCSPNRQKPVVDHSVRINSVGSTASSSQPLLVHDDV
# run-conditions: at 0.1 µM
attribute-measured: inhibition (%)
Give bare numbers, in %.

{"columns": ["molecule", "inhibition, %"],
 "data": [
  ["C[C@@H](Oc1cc(-n2cnc3ccc(OCC4CCN(C)CC4)cc32)sc1C(N)=O)c1ccccc1C(F)(F)F", -0.76],
  ["Cc1nc(-c2ccccc2)n2nc(NCCCN3CCOCC3)ncc12", 3.52],
  ["CCCN1CCCC(c2ccc(Nc3nc(Nc4cc(F)ccc4C(N)=O)c4cc[nH]c4n3)c(OC)c2)C1 (configuration not stated)", 8.98],
  ["Oc1cccc(-c2nc(-c3ccccc3)[nH]c2-c2ccncc2)c1", 4.95],
  ["COc1cc(Nc2nccc(-c3cnn4ncccc34)n2)cc(OC)c1", 96.2]
]}

Can you give me inhibition for all of these, one by one?
1. NS(=O)(=O)c1cccc(-c2cc3ccncc3cc2OCc2ccccc2)c1
2. CN(c1ccc(NC(=O)Nc2ccc(OC(F)(F)F)cc2)cc1)c1ccnc(Nc2cccc(S(N)(=O)=O)c2)n1
3. Cc1ccc(NC(=O)CC2CC2)cc1-c1ccc(C(=O)NCC2CC2)cc1
4. N#Cc1cccc(Nc2nccc(-c3cnn4ncccc34)n2)c1
5. CCOc1nccc2c1nc(-c1nonc1N)n2CC

1. 6.67
2. 37.5
3. 3.18
4. 78.3
5. 3.38

* * *

# study-system: Fibroblast growth factor receptor 3 (Homo sapiens);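 further: each value is a mean percent inhibition of FGFR3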
# run-conditions: at 0.1 µM
attribute-measured: inhibition (%)
Numbers only, in %.

Parameters: items (list). Returns: inhibition for each item.
1. COC(=O)Nc1nc2cc(Oc3ccc(NC(=O)Nc4cccc(Br)c4)cc3)ccc2[nH]1
2. C[C@@H](Oc1cc(-n2cnc3ccc(OCC4CCN(C)CC4)cc32)sc1C(N)=O)c1ccccc1C(F)(F)F
3. CCOc1nccc2c1nc(-c1nonc1N)n2CC
4. NS(=O)(=O)c1ccc(Nc2cc(-c3cccc(O)c3)n[nH]2)cc1
5. Cc1cc(-c2ccccn2)cc(C)c1/C=C/c1cncc(-c2nn[nH]n2)c1

1. 4.36
2. -0.95
3. 5
4. 9.15
5. 5.34

* * *

# study-system: Serine/threonine-protein kinase Nek9 (Homo sapiens);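 further: reported value is the mean percent inhibition of NEK9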
# run-conditions: at 0.1 µM
attribute-measured: inhibition (%)
One number for each entry, in %.

Worked cases, inhibition given:
{"columns": ["structure-notation", "inhibition (%)"],
 "data": [
  ["O=S(=O)(CCOCc1ccc(-c2ccc3ncnc(Nc4ccc(OCc5cccc(F)c5)c(Cl)c4)c3c2)o1)c1ccccc1", 5],
  ["COc1cccc(-n2ncc3c(N/N=C/c4ccc(S(C)(=O)=O)cc4)ncnc32)c1", 4.38],
  ["O=C1Nc2ccccc2/C1=C/Nc1ccc2[nH]c(=O)[nH]c2c1", 9.7],
  ["[O-][S+]1CCN(Cc2ccc(-c3ccc4ncnc(Nc5ccc(OCc6ccccc6)c(Cl)c5)c4c3)o2)CC1", 0.79]
]}

// next entry
Value lookup for inhibition; key = Nc1ccc(C#Cc2cncnc2Nc2ccc(OCc3cccc(F)c3)c(Cl)c2)cc1
3.62

* * *

# study-system: Serine/threonine-protein kinase MRCK alpha (Homo sapiens) (UniProt Q5VT25);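 further: each inhibition figure is a mean value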
# Sequence (Q5VT25 whole entry): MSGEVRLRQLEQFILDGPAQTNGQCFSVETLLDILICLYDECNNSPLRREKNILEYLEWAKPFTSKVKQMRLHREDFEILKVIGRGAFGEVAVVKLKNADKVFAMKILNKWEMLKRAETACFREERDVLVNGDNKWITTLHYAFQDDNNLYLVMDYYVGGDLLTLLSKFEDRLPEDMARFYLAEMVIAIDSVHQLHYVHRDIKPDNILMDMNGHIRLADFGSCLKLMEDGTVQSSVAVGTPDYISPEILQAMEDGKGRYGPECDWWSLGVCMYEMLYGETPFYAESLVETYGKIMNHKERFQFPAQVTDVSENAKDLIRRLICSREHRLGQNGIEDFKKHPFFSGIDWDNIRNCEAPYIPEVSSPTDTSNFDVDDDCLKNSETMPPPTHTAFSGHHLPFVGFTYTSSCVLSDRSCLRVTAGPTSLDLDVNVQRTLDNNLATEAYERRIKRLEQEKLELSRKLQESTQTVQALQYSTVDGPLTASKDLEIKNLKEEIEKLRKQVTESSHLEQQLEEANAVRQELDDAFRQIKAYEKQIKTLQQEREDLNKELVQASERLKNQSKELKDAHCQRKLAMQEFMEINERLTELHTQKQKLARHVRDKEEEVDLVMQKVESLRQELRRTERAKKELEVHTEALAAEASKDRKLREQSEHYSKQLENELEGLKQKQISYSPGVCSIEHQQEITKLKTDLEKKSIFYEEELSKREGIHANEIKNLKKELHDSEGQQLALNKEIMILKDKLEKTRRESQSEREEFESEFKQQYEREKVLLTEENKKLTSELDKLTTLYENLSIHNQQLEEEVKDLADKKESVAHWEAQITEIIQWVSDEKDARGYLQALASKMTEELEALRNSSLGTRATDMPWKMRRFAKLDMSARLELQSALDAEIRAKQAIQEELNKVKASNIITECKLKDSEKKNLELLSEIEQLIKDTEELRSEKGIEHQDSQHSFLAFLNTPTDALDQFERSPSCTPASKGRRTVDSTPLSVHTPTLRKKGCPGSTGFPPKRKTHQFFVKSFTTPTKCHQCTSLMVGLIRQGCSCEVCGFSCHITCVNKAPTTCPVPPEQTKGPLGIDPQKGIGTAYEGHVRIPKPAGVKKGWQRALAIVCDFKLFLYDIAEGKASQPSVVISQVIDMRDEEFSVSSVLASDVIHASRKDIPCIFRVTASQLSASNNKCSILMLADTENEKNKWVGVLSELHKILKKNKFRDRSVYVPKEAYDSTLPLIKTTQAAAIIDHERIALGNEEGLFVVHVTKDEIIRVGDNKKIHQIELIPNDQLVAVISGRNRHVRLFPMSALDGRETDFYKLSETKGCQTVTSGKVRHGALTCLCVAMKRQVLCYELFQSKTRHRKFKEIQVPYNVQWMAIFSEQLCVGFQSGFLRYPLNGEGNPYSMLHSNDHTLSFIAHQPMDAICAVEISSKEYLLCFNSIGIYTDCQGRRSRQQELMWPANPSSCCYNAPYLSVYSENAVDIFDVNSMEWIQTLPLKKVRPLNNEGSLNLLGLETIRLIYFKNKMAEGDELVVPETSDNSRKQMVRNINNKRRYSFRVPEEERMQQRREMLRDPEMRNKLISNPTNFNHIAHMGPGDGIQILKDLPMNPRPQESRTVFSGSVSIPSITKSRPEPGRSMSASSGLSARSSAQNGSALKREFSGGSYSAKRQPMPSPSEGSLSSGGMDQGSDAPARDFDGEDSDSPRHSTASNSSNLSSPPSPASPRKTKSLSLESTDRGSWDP
# run-conditions: at 0.1 µM
attribute-measured: inhibition (%)
Give bare numbers, in %.

Sample answers from the record:
{"columns": ["structure-notation", "study-system", "inhibition (%)"],
 "data": [
  ["NS(=O)(=O)c1cccc(Nc2cc(-c3ccc(F)cc3)n[nH]2)c1", "Serine/threonine-protein kinase MRCK alpha (Homo sapiens) (UniProt Q5VT25)", -0.33],
  ["Cc1ccc2c(-c3ccnc(Nc4cccc(C(F)(F)F)c4)n3)c(-c3ccccc3)nn2n1", "Serine/threonine-protein kinase MRCK alpha (Homo sapiens) (UniProt Q5VT25)", 1.06],
  ["Cc1ccc(Nc2ccnc(Nc3cccc(C(N)=O)c3)n2)cc1O", "Serine/threonine-protein kinase MRCK alpha (Homo sapiens) (UniProt Q5VT25)", -0.17],
  ["CN(c1ccc(NC(=O)Nc2ccc(OC(F)(F)F)cc2)cc1)c1ccnc(Nc2cccc(S(N)(=O)=O)c2)n1", "Serine/threonine-protein kinase MRCK alpha (Homo sapiens) (UniProt Q5VT25)", -5.74],
  ["Nc1nccc(-c2c(-c3ccc(F)cc3)nn3cc(C(F)(F)F)ccc23)n1", "Serine/threonine-protein kinase MRCK alpha (Homo sapiens) (UniProt Q5VT25)", -3.46],
  ["O=C(Nc1ccc(Oc2ccc3[nH]c(NC(=O)c4ccco4)nc3c2)cc1)Nc1cc(C(F)(F)F)ccc1F", "Serine/threonine-protein kinase MRCK alpha (Homo sapiens) (UniProt Q5VT25)", -0.11],
  ["NS(=O)(=O)c1cccc(-c2cc3ccncc3cc2OCc2ccccc2)c1", "Serine/threonine-protein kinase MRCK alpha (Homo sapiens) (UniProt Q5VT25)", 0.79],
  ["COc1cc2ncnc(Nc3ccc(C)c(O)c3)c2cc1OC", "Serine/threonine-protein kinase MRCK alpha (Homo sapiens) (UniProt Q5VT25)", 0.29],
  ["COc1ccc(-c2nn3ncccc3c2-c2ccnc(Nc3cccc(C(F)(F)F)c3)n2)cc1", "Serine/threonine-protein kinase MRCK alpha (Homo sapiens) (UniProt Q5VT25)", -3.04]
]}

Tell me the measured inhibition of Cc1cc(O)cc(C)c1/C=C/c1cncc(C(=O)N(C)C)c1 , please.
0.02
